- Assay System: recombinant human MAO-A (monoamine oxidase-A) (Homo sapiens, UniProt P21397)
- Construct: purchased Sigma-Aldrich
- Sequence (P21397 whole entry): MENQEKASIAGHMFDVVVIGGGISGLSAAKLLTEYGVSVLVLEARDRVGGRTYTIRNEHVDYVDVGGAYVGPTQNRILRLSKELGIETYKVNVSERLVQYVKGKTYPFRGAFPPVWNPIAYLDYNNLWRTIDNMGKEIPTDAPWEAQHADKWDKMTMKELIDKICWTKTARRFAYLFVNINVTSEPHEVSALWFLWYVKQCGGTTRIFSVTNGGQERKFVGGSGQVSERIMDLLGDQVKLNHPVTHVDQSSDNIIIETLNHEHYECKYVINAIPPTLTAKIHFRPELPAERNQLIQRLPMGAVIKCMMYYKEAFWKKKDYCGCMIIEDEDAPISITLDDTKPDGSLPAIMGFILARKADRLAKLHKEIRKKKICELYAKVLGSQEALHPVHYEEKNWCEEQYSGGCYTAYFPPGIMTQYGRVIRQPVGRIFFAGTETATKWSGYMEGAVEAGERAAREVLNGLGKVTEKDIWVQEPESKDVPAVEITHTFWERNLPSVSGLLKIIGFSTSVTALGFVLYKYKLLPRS
- Method Summary: Activity evaluation on recombinant human MAO-A (Amplex Red/HRP-coupled assay, 0.5 mM tyramine substrate)
- Assay type: biochemical
- Measurement Conditions: 0.5 mM tyramine substrate, read-out: Inhibitory Activity (IC50, nM) MAO-A
Counter-ions that a name gives are not always drawn.

>  <Molecule>
NCC(Cn1ncn(-c2cccc(-c3ccc(N4CCOCC4)nc3)n2)c1=O)=C(F)F [Example 215, Trifluoroacetate]

>  <IC50>
> 100000 nM

$$$$
>  <Molecule>
Cc1c(-c2ccc(N(C)C)nc2)cccc1-n1cnn(CC(CN)=C(F)F)c1=O [Example 256, Trifluoroacetate]

>  <IC50>
> 100000 nM

$$$$
>  <Molecule>
Cc1cc(C#Cc2ccc3c(c2)NCCO3)cnc1-n1cnn(CC(CN)=C(F)F)c1=O [Example 243, Ditrifluoroacetate]

>  <IC50>
32700 nM

$$$$
>  <Molecule>
CS(=O)(=O)c1ccc(-c2ccc(Cn3cnn(CC(CN)=C(F)F)c3=O)cc2)cc1 [Example 265, Trifluoroacetate]

>  <IC50>
> 100000 nM

$$$$

###

- Assay System: recombinant human DAO (diamine oxidase) (Homo sapiens, UniProt P19801)
- Construct: purchased R&D systems
- Sequence (P19801 20-751): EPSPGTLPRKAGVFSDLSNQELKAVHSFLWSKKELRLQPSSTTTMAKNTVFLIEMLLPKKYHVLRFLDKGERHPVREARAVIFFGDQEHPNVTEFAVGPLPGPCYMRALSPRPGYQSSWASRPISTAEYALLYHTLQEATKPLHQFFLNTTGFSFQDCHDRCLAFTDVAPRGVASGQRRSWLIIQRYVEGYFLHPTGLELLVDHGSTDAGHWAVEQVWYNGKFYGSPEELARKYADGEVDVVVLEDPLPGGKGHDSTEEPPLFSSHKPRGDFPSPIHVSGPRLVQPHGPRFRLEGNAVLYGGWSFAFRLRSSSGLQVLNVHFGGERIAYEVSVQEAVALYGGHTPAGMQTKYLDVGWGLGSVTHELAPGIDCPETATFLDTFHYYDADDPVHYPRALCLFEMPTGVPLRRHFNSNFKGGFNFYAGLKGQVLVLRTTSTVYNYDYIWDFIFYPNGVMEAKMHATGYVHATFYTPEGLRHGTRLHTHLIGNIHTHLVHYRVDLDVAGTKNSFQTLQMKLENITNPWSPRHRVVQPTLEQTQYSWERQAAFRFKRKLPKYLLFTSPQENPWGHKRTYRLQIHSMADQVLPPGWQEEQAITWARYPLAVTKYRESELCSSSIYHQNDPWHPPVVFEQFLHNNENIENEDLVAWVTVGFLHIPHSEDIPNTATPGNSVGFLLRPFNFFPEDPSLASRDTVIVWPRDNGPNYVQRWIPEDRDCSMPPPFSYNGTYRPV
- Method Summary: Activity evaluation on recombinant human DAO (Amplex Red/HRP-coupled assay, 1 mM putrescine substrate)
- Assay type: biochemical
- Measurement Conditions: 1 mM putrescine, read-out: Inhibitory Activity (IC50, nM) DAO
Counter-ions that a name gives are not always drawn.
The following compounds are shown together with reported IC50 values.

>  <Compound>
NCC(Cn1ncn(-c2ncc(-c3ccc(N4CCNCC4)cc3)cc2F)c1=O)=C(F)F [Example 83, Ditrifluoroacetate]

>  <Assay System>
recombinant human DAO (diamine oxidase) (Homo sapiens, UniProt P19801)

>  <Unit Annotation>
nM

>  <IC50>
250

$$$$
>  <Compound>
CCn1cc(-c2cnc(-n3cnn(CC(CN)=C(F)F)c3=O)cn2)cn1 [Example 95, Trifluoroacetate]

>  <Assay System>
recombinant human DAO (diamine oxidase) (Homo sapiens, UniProt P19801)

>  <Unit Annotation>
nM

>  <IC50>
19

$$$$
>  <Compound>
Cc1cc(-c2ccc(C(F)(F)F)nc2)sc1Cn1cnn(CC(CN)=C(F)F)c1=O [Example 156, Trifluoroacetate]

>  <Assay System>
recombinant human DAO (diamine oxidase) (Homo sapiens, UniProt P19801)

>  <Unit Annotation>
nM

>  <IC50>
9100

$$$$
>  <Compound>
CN1C(=O)CCc2cc(-c3csc(Cn4cnn(CC(CN)=C(F)F)c4=O)c3)ccc21 [Example 152, Trifluoroacetate]

>  <Assay System>
recombinant human DAO (diamine oxidase) (Homo sapiens, UniProt P19801)

>  <Unit Annotation>
nM

>  <IC50>
3500

$$$$
>  <Compound>
Cc1cc(-c2cc(C)c3c(c2)CCC(=O)N3)cnc1-n1cnn(CC(CN)=C(F)F)c1=O [Example 73, Trifluoroacetate]

>  <Assay System>
recombinant human DAO (diamine oxidase) (Homo sapiens, UniProt P19801)

>  <Unit Annotation>
nM

>  <IC50>
6100

$$$$
>  <Compound>
CS(=O)(=O)c1ccc(-c2ccc(-n3cnn(CC(CN)=C(F)F)c3=O)cn2)cc1 [Example 38, Trifluoroacetate]

>  <Assay System>
recombinant human DAO (diamine oxidase) (Homo sapiens, UniProt P19801)

>  <Unit Annotation>
nM

>  <IC50>
24

$$$$
>  <Compound>
CS(=O)(=O)c1ccc(-c2cnc(-n3cnn(CC(CN)=C(F)F)c3=O)c(F)c2)cc1 [Example 82, Trifluoroacetate]

>  <Assay System>
recombinant human DAO (diamine oxidase) (Homo sapiens, UniProt P19801)

>  <Unit Annotation>
nM

>  <IC50>
13

$$$$

###

- Assay System: recombinant human VAP-1 (Homo sapiens, UniProt Q16853)
- Construct: purchased R&D systems
- Sequence (Q16853 1-763): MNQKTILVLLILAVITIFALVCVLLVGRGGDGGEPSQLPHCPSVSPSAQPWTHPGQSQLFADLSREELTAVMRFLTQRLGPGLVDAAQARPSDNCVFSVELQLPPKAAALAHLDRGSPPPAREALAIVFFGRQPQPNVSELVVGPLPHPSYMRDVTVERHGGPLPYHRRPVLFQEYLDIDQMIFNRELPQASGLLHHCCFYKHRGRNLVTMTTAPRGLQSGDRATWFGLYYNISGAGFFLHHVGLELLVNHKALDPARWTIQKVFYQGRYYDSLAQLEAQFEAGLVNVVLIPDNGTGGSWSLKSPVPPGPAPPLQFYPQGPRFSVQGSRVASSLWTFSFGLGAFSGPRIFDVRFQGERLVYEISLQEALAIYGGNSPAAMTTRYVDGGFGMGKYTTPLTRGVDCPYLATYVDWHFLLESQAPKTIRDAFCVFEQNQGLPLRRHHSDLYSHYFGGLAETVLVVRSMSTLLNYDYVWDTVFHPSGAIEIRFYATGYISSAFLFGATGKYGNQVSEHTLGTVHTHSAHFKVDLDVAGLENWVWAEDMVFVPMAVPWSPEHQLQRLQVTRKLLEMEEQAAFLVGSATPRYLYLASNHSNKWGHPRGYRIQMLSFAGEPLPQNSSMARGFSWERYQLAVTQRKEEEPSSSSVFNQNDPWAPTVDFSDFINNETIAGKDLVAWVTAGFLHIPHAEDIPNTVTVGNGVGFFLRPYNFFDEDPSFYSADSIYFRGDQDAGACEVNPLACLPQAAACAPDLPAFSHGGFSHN
- Method Summary: Activity evaluation on recombinant human VAP-1 (Amplex Red/HRP-coupled hydrogen peroxide assay, benzylamine substrate)
- Format: biochemical
- Measurement Conditions: recombinant human VAP-1; 30 min preincubation at 37° C.; 1 mM benzylamine; read-out: Inhibitory Activity (IC50, nM) human VAP-1
Where a name gives a salt, the structure may show the parent alone.
Metric: log10 IC50 (log10 of the value in nM)

>  <Compound>
CN1C(=O)CCc2cc(-c3cnc(-n4cnn(CC(CN)=C(F)F)c4=O)cn3)ccc21 [Example 94, Trifluoroacetate]

>  <Metric>
log10 IC50

>  <Numeric Readout>
-0.70

$$$$
>  <Compound>
NCC(Cn1ncn(Cc2ccc(-c3ccc(N4CCNCC4)cc3)s2)c1=O)=C(F)F [Example 106, Ditrifluoroacetate]

>  <Metric>
log10 IC50

>  <Numeric Readout>
0.67

$$$$
>  <Compound>
Cc1cc(-c2ccc(N3CCNCC3)cc2)cnc1-n1cnn(CC(CN)=C(F)F)c1=O [Example 69, Ditrifluoroacetate]

>  <Metric>
log10 IC50

>  <Numeric Readout>
0.08

$$$$
>  <Compound>
CN1C(=O)COc2cc(-c3ccc(Cn4cnn(CC(CN)=C(F)F)c4=O)s3)ccc21 [Example 144, Trifluoroacetate]

>  <Metric>
log10 IC50

>  <Numeric Readout>
-0.15

$$$$
>  <Compound>
NCC(Cn1ncn(-c2ccnc(-c3ccc4c(c3)OCO4)c2)c1=O)=C(F)F [Example 64, Trifluoroacetate]

>  <Metric>
log10 IC50

>  <Numeric Readout>
-0.40

$$$$
>  <Compound>
Cc1cc(Br)ncc1-n1cnn(CC(CN)=C(F)F)c1=O [Example 12, Trifluoroacetate]

>  <Metric>
log10 IC50

>  <Numeric Readout>
1.63

$$$$
>  <Compound>
NCC(Cn1ncn(-c2cccc(-c3ccc(C(F)(F)F)nc3)c2)c1=O)=C(F)F [Example 19, Trifluoroacetate]

>  <Metric>
log10 IC50

>  <Numeric Readout>
0.72

$$$$
>  <Compound>
NCC(Cn1ncn(-c2ccc(Br)nc2)c1=O)=C(F)F [Example 7, Trifluoroacetate]

>  <Metric>
log10 IC50

>  <Numeric Readout>
0.97

$$$$
>  <Compound>
Cc1cc(-c2ccc3c(c2)OCO3)cnc1-n1cnn(CC(CN)=C(F)F)c1=O [Example 72, Trifluoroacetate]

>  <Metric>
log10 IC50

>  <Numeric Readout>
-0.30

$$$$
>  <Compound>
CCn1cc(-c2csc(Cn3cnn(CC(CN)=C(F)F)c3=O)c2)cn1 [Example 153, Trifluoroacetate]

>  <Metric>
log10 IC50

>  <Numeric Readout>
0.11

$$$$
>  <Compound>
CN1C(=O)CCc2cc(-c3ccc(-n4cnn(CC(CN)=C(F)F)c4=O)cn3)ccc21 [Example 44, Trifluoroacetate]

>  <Metric>
log10 IC50

>  <Numeric Readout>
-0.52

$$$$
>  <Compound>
NCC(Cn1ncn(Cc2ccc(-c3ccc(C(F)(F)F)nc3)s2)c1=O)=C(F)F [Example 111, Trifluoroacetate]

>  <Metric>
log10 IC50

>  <Numeric Readout>
-0.40

$$$$
>  <Compound>
CN(C)c1ccc(-c2ccc(-n3cnn(CC(CN)=C(F)F)c3=O)cc2F)cn1 [Example 27, Trifluoroacetate]

>  <Metric>
log10 IC50

>  <Numeric Readout>
-0.40

$$$$
>  <Compound>
NCC(Cn1ncn(Cc2ccc(-c3ccc(C(=O)N4CCOCC4)cc3)s2)c1=O)=C(F)F

>  <Metric>
log10 IC50

>  <Numeric Readout>
0.15

$$$$
>  <Compound>
CN1C(=O)CCc2cc(-c3ccc(Cn4cnn(CC(CN)=C(F)F)c4=O)s3)ccc21 [Example 138, Trifluoroacetate]

>  <Metric>
log10 IC50

>  <Numeric Readout>
-1.00

$$$$
